B1: PTPRD (parent)
chain: PVVSMDLDPQPITDEEEGLIWVVG

Variants of: B1
Assay: protein stability index of a GFP-peptide fusion (GPS, HEK-293T) (PSI 1-6); higher = more stable;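 note: lentivirally expressed fusions sorted by FACS into six bins by GFP to DsRed ratio, PSI derived from sequencing read proportions per bin multiplied by bin number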
Details: c terminus: a fixed tail appended
Give TRUE when the value for protein stability index is at least 4. Give FALSE when it is less.

>>> df
   mutation_descriptor  category_label
0                 V22N            TRUE

Asked: Entry V23R : is its protein stability index no less than 4?
Given back: TRUE

Asked: Can you check Q10P next?
Given back: FALSE

Asked: Can you check T13C next?
Given back: FALSE

Asked: Can you check G18D next?
Given back: TRUE

Asked: Can you check D6S next?
Given back: FALSE

Asked: Can you check E15W next?
Given back: FALSE

Asked: Can you check S4G next?
Given back: TRUE

Asked: Can you check V2R next?
Given back: TRUE

Data origin, for the record: the supplement of paper PMC10567573
